Molecular target: human GlyR α1 subunit P146 (CysL) substituted with Pip (Homo sapiens, UniProt P23415, P174X)
Sequence (P23415 29-457 P174X): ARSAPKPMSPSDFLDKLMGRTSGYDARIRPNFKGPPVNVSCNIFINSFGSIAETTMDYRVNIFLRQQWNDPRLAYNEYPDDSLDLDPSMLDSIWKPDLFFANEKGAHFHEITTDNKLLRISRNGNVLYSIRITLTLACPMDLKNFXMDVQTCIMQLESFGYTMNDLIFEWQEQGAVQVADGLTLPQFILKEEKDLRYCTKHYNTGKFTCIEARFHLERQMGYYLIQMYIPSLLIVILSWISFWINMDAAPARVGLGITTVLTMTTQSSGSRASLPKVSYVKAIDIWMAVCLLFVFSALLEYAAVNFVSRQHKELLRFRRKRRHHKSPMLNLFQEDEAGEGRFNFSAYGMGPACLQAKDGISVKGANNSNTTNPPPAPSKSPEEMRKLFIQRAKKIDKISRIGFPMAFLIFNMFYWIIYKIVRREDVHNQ
Test: TEVC, oocytes, nonsense suppression, P146 Pip
Type: cell-based
Conditions: EC50, Table 3, nonsense suppression, n = 3
measured.parameter: pEC50
Would you please state pEC50, meaning minus log10 of the concentration in mol/L, as a bare number?

For the molecule shown here, NCCS(=O)(=O)O , give the reported pEC50.
3.12
